- experimental system: T1, canine NGF tagged at the C-terminus with the Flag tag (canine, UniProt A0A8I3PYI3 122-241)
- T1 construct: mature; Expressed with baculovirus technology; also called feline NGF (processed form identical)
- T1 sequence (A0A8I3PYI3 entry or part of it): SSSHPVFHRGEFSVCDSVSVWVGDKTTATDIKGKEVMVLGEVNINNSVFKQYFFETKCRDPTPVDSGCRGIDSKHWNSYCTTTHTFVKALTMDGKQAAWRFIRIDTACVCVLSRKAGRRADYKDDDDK
- test: SPR off-rate screen, Fab-SASA on BSA chip
reported property: pKd
API: returns pKd as number; meaning -log10 of concentration in mol/L.

felinized clone 101 Fab-SASA variant N53K (VL) (Fab, V domains shown, not shown: small tags and cut ends) VH: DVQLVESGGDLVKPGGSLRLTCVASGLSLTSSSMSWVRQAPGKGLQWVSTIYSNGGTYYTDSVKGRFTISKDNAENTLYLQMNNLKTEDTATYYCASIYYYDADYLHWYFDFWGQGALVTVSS VL: EIQMTQSPTSLSASVGDRVTITCRASEGISNNLSWYQQTPGKAPKLLIYATSKLHSGVPSRFSGSGSGTDFTLTISSLQPEDFATYYCQQGYKWPLTFGGGTKLEITR: 8.69
felinized clone 101 Fab-SASA variant S30V (VL) (Fab, V domains shown, not shown: small tags and cut ends) VH: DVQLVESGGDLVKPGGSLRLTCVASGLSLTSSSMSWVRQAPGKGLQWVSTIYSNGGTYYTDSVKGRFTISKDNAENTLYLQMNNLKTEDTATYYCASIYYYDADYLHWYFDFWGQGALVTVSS VL: EIQMTQSPTSLSASVGDRVTITCRASEGIVNNLSWYQQTPGKAPKLLIYATSNLHSGVPSRFSGSGSGTDFTLTISSLQPEDFATYYCQQGYKWPLTFGGGTKLEITR: 8.77
felinized clone 101 Fab-SASA variant Y58D (VH) (Fab, V domains shown, not shown: small tags and cut ends) VH: DVQLVESGGDLVKPGGSLRLTCVASGLSLTSSSMSWVRQAPGKGLQWVSTIYSNGGTDYTDSVKGRFTISKDNAENTLYLQMNNLKTEDTATYYCASIYYYDADYLHWYFDFWGQGALVTVSS VL: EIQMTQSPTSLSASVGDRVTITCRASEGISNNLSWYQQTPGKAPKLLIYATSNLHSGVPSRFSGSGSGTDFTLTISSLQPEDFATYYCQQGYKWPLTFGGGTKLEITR: 8.83
felinized clone 101 Fab-SASA variant T30R (VH) (Fab, V domains shown, not shown: small tags and cut ends) VH: DVQLVESGGDLVKPGGSLRLTCVASGLSLRSSSMSWVRQAPGKGLQWVSTIYSNGGTYYTDSVKGRFTISKDNAENTLYLQMNNLKTEDTATYYCASIYYYDADYLHWYFDFWGQGALVTVSS VL: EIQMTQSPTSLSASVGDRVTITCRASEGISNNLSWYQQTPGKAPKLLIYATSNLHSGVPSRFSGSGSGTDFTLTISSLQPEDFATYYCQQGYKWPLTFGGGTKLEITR: 8.69

--- query ---
Exercise: Return reported pKd; argument: felinized clone 101 Fab-SASA variant S30P (VL) (Fab, V domains shown, not shown: small tags and cut ends) VH: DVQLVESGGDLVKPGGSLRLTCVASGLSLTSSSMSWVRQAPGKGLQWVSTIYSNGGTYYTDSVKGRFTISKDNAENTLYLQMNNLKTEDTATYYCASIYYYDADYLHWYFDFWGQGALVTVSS VL: EIQMTQSPTSLSASVGDRVTITCRASEGIPNNLSWYQQTPGKAPKLLIYATSNLHSGVPSRFSGSGSGTDFTLTISSLQPEDFATYYCQQGYKWPLTFGGGTKLEITR
Solution: 8.59
